tested on: SNB-78; test: NCI tumour cell line growth inhibition, 48 h
Active and inactive are the calls of the source. Rule as the data show it: active = GI50 up to about 1.1 µM and inactive = higher.
Recorded GI50, one value per entry.
measured-attribute: GI50

molecule | measured-attribute | test-value
O=C(/N=C(/Nc1ccccc1)SCS/C(=N\C(=O)c1ccco1)Nc1ccccc1)c1ccco1 | GI50 | 37.1 µM (inactive)
CC1(C)C(=O)C(C)(C)C1=NNC(N)=S | GI50 | > 100 µM (inactive)
COC(=O)C(Cc1nc2ccccc2nc1O)C(=O)C(=O)Nc1ccc([N+](=O)[O-])cc1[N+](=O)[O-] (stereo unspecified) | GI50 | 38.4 µM (inactive)
NC(=S)N/N=C(\CC1OC(=O)c2ccccc21)c1ccc(Cl)cc1 (stereo unspecified) | GI50 | 36.9 µM (inactive)
COc1ccc(OC)c2[nH]c(Sc3c([N+](=O)[O-])ncn3C)nc12 | GI50 | 20.9 µM (inactive)
C=CC1(C)/C(=N\O)C(C)(CC)C(=O)N1O (stereo unspecified) | GI50 | > 100 µM (inactive)
O=[N+]([O-])c1ccc2nc3ccscc-3c2c1 | GI50 | 23 µM (inactive)
Cc1ccc(S(=O)(=O)N/N=C\c2c3ccccc3[n+]([O-])c3ccccc23)cc1 | GI50 | 6.71 µM (inactive)
NC(=O)CCC(N=C(N)c1csc(C2OC(CO)C(O)C2O)n1)C(=O)O (stereo unspecified) | GI50 | > 100 µM (inactive)
O=S(=O)(c1ccccc1)c1nccs1 | GI50 | > 100 µM (inactive)
O=C(CO)CC(=O)C(=O)Nc1nc([N+](=O)[O-])cs1 | GI50 | > 100 µM (inactive)

The measurements presented in this section are drawn from ChEMBL document CHEMBL1201862.
